- Test system: HeLa
- procedureText: Antiproliferative activity against human HeLa cells after 72 hrs by celltiter-blue cell viability assay
- Format: functional, cell-based
measuredQuantity: log10 of IC50 (log10 of the value in µM)
On a log10 scale: recorded IC50, unit µM.

CONC(=O)CCCCC[C@H](NC(=O)Cc1c(C)[nH]c2ccc(OC)cc12)c1ncc(-c2ccc3ccccc3c2)[nH]1: -0.18
O=C(O)CCCCC[C@H](NS(=O)(=O)c1ccccc1[N+](=O)[O-])c1ncc(-c2ccc3ccccc3c2)[nH]1: 0.84
CN(C)S(=O)(=O)N[C@@H](CCCCCC(=O)O)c1ncc(-c2ccc3ccccc3c2)[nH]1: 1.42

Answer with log10 of IC50 of COc1ccc2[nH]c(C)c(CC(=O)N[C@@H](CCCCCC(=O)O)c3ncc(-c4ccc5ccccc5c4)[nH]3)c2c1 measured for HeLa.
-0.41

Answer with log10 of IC50 of O=C(O)CCCCC[C@H](NC(=O)c1cncs1)c1ncc(-c2ccc3ccccc3c2)[nH]1 measured for HeLa.
0.76

Answer with log10 of IC50 of CCNC(=O)CCCCC[C@H](NC(=O)Cc1c(C)[nH]c2ccc(OC)cc12)c1ncc(-c2ccc3ccccc3c2)[nH]1 measured for HeLa.
0.43

Answer with log10 of IC50 of COc1ccc2[nH]c(C)c(CC(=O)N[C@@H](CCCCCC(=O)Nc3nncs3)c3ncc(-c4ccc5ccccc5c4)[nH]3)c2c1 measured for HeLa.
0.67

----------
- procedureText: Intrinsic clearance in human microsomes in presence of UDPGA
- Format: ADME, Microsome
measuredQuantity: microsomal CLint (µL/min/mg)
Report as a plain number; the unit µL/min/mg is understood.

# return recorded microsomal CLint for entry COc1ccc2[nH]c(C)c(CC(=O)N[C@@H](CCCCCC(=O)O)c3ncc(-c4ccc5ccccc5c4)[nH]3)c2c1
24

----------
- procedureText: Intrinsic clearance in dog liver microsomes in presence of NADPH
- Format: ADME, Canis lupus familiaris, Microsome
measuredQuantity: microsomal CLint (µL/min/mg)
Report as a plain number; the unit µL/min/mg is understood.

# return recorded microsomal CLint for entry COc1ccc2[nH]c(C)c(CC(=O)N[C@@H](CCCCCC(=O)O)c3ncc(-c4ccc5ccccc5c4)[nH]3)c2c1
3

----------
- targetUnderTest: Histone deacetylase 3 (Homo sapiens, UniProt O15379)
- Sequence (O15379 whole entry): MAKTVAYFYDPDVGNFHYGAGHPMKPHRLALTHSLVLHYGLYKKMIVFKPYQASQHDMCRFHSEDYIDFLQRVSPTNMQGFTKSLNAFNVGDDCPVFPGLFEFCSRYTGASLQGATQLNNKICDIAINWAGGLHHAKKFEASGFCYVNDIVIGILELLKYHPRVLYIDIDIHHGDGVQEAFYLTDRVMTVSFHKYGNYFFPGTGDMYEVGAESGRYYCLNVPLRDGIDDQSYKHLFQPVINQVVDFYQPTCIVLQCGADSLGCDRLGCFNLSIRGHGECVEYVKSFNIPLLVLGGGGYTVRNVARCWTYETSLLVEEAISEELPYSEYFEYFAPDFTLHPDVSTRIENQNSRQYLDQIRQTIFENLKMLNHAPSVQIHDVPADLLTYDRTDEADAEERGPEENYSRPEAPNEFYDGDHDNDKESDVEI
measuredQuantity: IC50 (nM)
Report as a plain number; the unit nM is understood.

Answer with IC50 of COc1ccc2[nH]c(C)c(CC(=O)N[C@@H](CCCCCC(N)=O)c3ncc(-c4ccc5ccccc5c4)[nH]3)c2c1 measured for Histone deacetylase 3 (Homo sapiens, UniProt O15379).
250

----------
- targetUnderTest: Histone deacetylase 1 (Homo sapiens)
- Sequence (Q13547 whole entry): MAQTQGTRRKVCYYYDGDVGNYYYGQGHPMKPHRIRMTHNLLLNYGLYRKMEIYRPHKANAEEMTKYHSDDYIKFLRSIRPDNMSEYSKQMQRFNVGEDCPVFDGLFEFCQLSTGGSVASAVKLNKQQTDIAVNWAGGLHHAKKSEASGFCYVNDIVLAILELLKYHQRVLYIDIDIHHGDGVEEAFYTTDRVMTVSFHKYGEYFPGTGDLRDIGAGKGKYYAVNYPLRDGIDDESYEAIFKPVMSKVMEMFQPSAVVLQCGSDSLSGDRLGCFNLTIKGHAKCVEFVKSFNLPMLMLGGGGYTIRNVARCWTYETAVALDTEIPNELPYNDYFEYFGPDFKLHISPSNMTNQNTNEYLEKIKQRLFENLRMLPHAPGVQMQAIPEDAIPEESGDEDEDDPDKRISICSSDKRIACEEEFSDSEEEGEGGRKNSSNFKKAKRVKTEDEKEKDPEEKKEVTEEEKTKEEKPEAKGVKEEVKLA
- procedureText: Inhibition of C-terminal FLAG tagged HDAC1
measuredQuantity: pIC50
Friendly reminder that pIC50 comes from taking -log10 of the concentration in mol/L.

Reference set, count: 8
COc1ccc2[nH]c(C)c(CC(=O)N[C@@H](CCCCCC(C)=O)c3ncc(-c4ccccc4)[nH]3)c2c1: 7.57
COc1ccc2[nH]c(C)c(CC(=O)N[C@@H](CCCCCC(=O)Nc3ccccc3)c3ncc(-c4ccc5ccccc5c4)[nH]3)c2c1: 6.70
CN1CCC(C(=O)N[C@@H](CCCCCC(=O)O)c2ncc(-c3ccc4ccccc4c3)[nH]2)CC1: 7.46
O=C(O)CCCCC[C@H](NS(=O)(=O)c1ccccc1[N+](=O)[O-])c1ncc(-c2ccc3ccccc3c2)[nH]1: 7.72
COc1ccc2[nH]c(C)c(CC(=O)N[C@@H](CCCCCC(=O)Nc3ccccc3N)c3ncc(-c4ccc5ccccc5c4)[nH]3)c2c1: 6.96
O=C(O)CCCCC[C@H](NC(=O)c1cncs1)c1ncc(-c2ccc3ccccc3c2)[nH]1: 7.64
CCC(=O)CCCCC[C@H](NC(=O)Cc1c(C)[nH]c2ccc(OC)cc12)c1ncc(-c2ccc3ccccc3c2)[nH]1: 7.57
COc1ccc2[nH]c(C)c(CC(=O)N[C@@H](CCCCCC(=O)NS(=O)(=O)C(F)(F)F)c3ncc(-c4ccc5ccccc5c4)[nH]3)c2c1: 7.03

# return recorded pIC50 for entry CCNC(=O)CCCCC[C@H](NC(=O)Cc1c(C)[nH]c2ccc(OC)cc12)c1ncc(-c2ccc3ccccc3c2)[nH]1
7.18
